Inhibitory activity CALP at 100 μM for assorted molecules
Target: CAL PDZ (Homo sapiens)
Construct: Recombinant CAL PDZ was expressed and purified in E. coli as previously described; made in house; host or cells: E. coli
Experiment: CALP fluorescence polarization (FP) competition assay, HTS format with dose-response validation
Type: binding
Parameters: unit not given here
Conditions: at 100 μM
attributeMeasured: Inhibitory activity CALP at 100 μM

- Cc1c(O)c(O)c(O)c(C=O)c1C=O [Example 4, 3,4,5-trihydroxy-6-methylphthalaldehyde]: −94.09
- O=C1c2c(O)c(Cl)cc3c2[C@@]2(Oc4cc(Cl)c(O)c5c4[C@]3(O2)[C@@H]2O[C@@H]2C5=O)[C@@H]2O[C@H]12: −80.85
- O=C(O[C@@H]1Cc2c(O)cc(O)cc2O[C@@H]1c1cc(=O)c(O)c2c(O)c(O)cc([C@H]3Oc4cc(O)cc(O)c4C[C@H]3O)c2c1)c1cc(O)c(O)c(O)c1: −65.53
- C/C1=C/CC(O)/C=C\C(C)C(O)C(C)/C=C(\C)C(=O)c2c(O)c(C)cc3c2C(=O)C(Cl)=C(NC(=O)/C=C/C=C/C=C/C(C)C(O)CC1=O)C3=O (stereo not drawn): −54.29
- COc1cc(O)c2c(c1)oc(=O)c1c3cc(O)c(O)cc3oc21: −74.42
- CC[C@@]1(O)C[C@H](O[C@H]2C[C@H](N(C)C)[C@H](O)[C@H](C)O2)c2c(cc3c(c2O)C(=O)c2c(O)ccc(O)c2C3=O)[C@H]1C(=O)OC: −67.06
- Oc1ccc(N2CCN(c3ncccn3)CC2)cc1: −46.33
- CC1COC2C3=C(C(=O)C=CC3=O)C3OC(=O)C4CCC5C1CCC25C43 (stereo not drawn): −67.12
- O=c1[nH]c2ccc(S(=O)(=O)Nc3ccc(O)c4ccccc34)cc2[nH]1: −72.16

Taken from patent US20230338340A1.
